Listed here are binders together with their documented Receptor downregulation, (EC50) (pM).
Biological target: human Siglec-7 on primary human monocyte-derived dendritic cells (human, UniProt Q9Y286 19-467)
Sequence (Q9Y286 19-467): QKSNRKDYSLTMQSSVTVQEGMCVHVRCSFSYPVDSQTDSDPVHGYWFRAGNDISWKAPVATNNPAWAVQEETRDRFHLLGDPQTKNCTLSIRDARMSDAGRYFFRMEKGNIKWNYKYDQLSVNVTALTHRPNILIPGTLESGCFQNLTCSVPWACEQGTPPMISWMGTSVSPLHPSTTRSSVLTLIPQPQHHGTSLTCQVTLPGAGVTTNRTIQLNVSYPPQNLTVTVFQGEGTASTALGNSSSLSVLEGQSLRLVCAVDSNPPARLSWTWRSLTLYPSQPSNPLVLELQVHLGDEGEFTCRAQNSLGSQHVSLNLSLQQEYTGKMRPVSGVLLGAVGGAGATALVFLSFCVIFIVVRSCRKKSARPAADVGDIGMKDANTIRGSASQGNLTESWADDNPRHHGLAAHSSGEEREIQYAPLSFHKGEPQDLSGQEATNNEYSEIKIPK
Assay: cell-based or functional assay
Hi! Could you send only the number? It should be in pM, unit omitted.

Please review the entries below; each comes with its answer.
### Prompt Recorded Receptor downregulation, (EC50) (pM) for S7AB-H8 (antibody, V domains shown, also called parental humanized antibody) VH: QVQLVQSGAEVKKPGASVKISCKASGYAFTNCWMNWVRQAPGQGLEWIGRIFPGNGHTNYAQKFQGRATLTEDTSTSTAYMELSSLRSEDTAVYYCARDYSDYYFDYWGQGTLVTVSS VL: DIQMTQSPSSLSASVGDRVTITCRASQDINTYLNWYQQKPGKAPKLLIYYTSRLHSGVPSRFSGSGSGTDYTLTISSLQPEDFATYYCQQGNTLPWTFGQGTKLEIK , please?
### Response 340

### Prompt Recorded Receptor downregulation, (EC50) (pM) for S7AB-H8.35 (antibody, V domains shown) VH: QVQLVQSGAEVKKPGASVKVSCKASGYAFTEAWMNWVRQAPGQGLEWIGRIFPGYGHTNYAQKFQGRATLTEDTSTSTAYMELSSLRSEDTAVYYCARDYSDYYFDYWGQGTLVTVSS VL: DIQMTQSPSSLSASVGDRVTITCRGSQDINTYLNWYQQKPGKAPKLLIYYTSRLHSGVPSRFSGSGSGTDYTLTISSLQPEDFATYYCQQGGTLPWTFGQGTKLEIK , please?
### Response 206

Now let's try a different one.
### Prompt Recorded Receptor downregulation, (EC50) (pM) for S7AB-H8.33 (antibody, V domains shown) VH: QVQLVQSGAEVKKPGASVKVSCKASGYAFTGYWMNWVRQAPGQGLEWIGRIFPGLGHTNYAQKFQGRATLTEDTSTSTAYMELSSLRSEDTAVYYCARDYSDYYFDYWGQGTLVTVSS VL: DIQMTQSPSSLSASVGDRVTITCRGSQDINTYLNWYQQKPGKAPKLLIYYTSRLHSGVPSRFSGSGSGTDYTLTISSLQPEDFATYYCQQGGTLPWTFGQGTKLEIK , please?
### Response 65.3
